target entity: C-C chemokine receptor type 3 (Homo sapiens) (UniProt P51677)
Sequence (P51677 whole entry): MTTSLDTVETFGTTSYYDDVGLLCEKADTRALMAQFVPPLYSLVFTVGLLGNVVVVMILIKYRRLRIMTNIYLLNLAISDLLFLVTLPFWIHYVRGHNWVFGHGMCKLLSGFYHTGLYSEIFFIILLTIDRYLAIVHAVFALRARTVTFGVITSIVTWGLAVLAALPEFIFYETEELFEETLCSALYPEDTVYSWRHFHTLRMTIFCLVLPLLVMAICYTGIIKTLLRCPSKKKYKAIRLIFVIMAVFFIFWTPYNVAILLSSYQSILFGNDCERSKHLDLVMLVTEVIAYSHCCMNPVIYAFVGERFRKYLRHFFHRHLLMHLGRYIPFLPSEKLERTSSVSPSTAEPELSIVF
measurement description: In vitro inhibitory activity against C-C chemokine receptor type 3 at 10 uM using 150p M [125I]-labeled human eotaxin
property measured: inhibition (%)

structure notation	readout units	inhibition
O=C(NCCCCN1CC[C@@H]2[C@H](C1)c1cccc3c1N2CC3)C1CCCCC1	%	45

(I) NCCCCN1CC[C@@H]2[C@H](C1)c1cccc3c1N2CC3
(II) Fc1ccc(CCCN2CC[C@@H]3[C@H](C2)c2cccc4c2N3CC4)cc1
q: Could you point out whether the larger inhibition belongs to I or to II ? Mark your selection by writing its label.
a: II
(II: 100%, I: 5%)

(a) Fc1ccc(CCN2CC[C@@H]3[C@H](C2)c2cccc4c2N3CC4)cc1
(b) Fc1ccc(CN2CC[C@@H]3[C@H](C2)c2cccc4c2N3CC4)cc1
q: Smaller inhibition value? Options are a and b Returns: label corresponding to the selected item.
a: b

(a) NCCCN1CC[C@@H]2[C@H](C1)c1cccc3c1N2CC3
(b) O=C(NCCCCN1CC[C@@H]2[C@H](C1)c1cccc3c1N2CC3)C12CC3CC(CC(C3)C1)C2
q: Problem: Given the entries a and b , determine which has the lower reported inhibition. Output the label that corresponds to your choice.
a: a
(a: 14%, b: 73%)

Origin of the recorded values: ChEMBL document CHEMBL1136024
